Molecular target: GST-Dm-Relish (Drosophila melanogaster, UniProt Q94527 99-473)
Sequence: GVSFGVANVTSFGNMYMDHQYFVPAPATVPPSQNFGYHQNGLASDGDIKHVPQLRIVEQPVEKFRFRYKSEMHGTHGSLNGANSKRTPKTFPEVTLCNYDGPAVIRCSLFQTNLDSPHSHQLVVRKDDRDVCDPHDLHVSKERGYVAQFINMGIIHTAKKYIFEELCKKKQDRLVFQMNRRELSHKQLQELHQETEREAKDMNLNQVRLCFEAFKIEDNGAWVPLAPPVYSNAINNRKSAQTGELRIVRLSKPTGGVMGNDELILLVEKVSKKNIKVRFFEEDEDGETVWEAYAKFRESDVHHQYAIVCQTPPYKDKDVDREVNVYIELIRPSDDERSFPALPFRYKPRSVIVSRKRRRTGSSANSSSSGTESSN
Assay: protein-binding microarray (PBM); PBM: ~300 nM protein, 6 mM HEPES pH 7.8, 80 mM KCl, 0.5 mM EDTA, 0.5 mM EGTA, 6% glycerol, 35 ng/ul poly-dIdC, 1% milk, 1 h, room temperature; high values mean tight binding
Conditions: dsDNA, one strand shown
Response field label: string, one of true (1) (binding signal strictly below 4 z-score) or false (0).

Completed entries (count: 10):
- CHAIN: "CCGATTAACATCAATGGGATTTCTGATGTTAATCGGGTCTTGATTCGCTTGACGCTGCTG"
  ASSIGNED CATEGORY: "false (0)"
- CHAIN: "CCGATTAACATCACTGGAAATTCTGATGTTAATCGGGTCTTGATTCGCTTGACGCTGCTG"
  ASSIGNED CATEGORY: "true (1)"
- CHAIN: "CCGATTAACATCACGGGCTTTCCTGATGTTAATCGGGTCTTGATTCGCTTGACGCTGCTG"
  ASSIGNED CATEGORY: "true (1)"
- CHAIN: "CCGATTAACATCACGCAAATCCCTGATGTTAATCGGGTCTTGATTCGCTTGACGCTGCTG"
  ASSIGNED CATEGORY: "true (1)"
- CHAIN: "CCGATTAACATCACAAAAAACCCTGATGTTAATCGGGTCTTGATTCGCTTGACGCTGCTG"
  ASSIGNED CATEGORY: "false (0)"
- CHAIN: "CCGATTAACATCAAATTCCCCCCTGATGTTAATCGGGTCTTGATTCGCTTGACGCTGCTG"
  ASSIGNED CATEGORY: "false (0)"
- CHAIN: "CCGATTAACATCAGGGGAACAACTGATGTTAATCGGGTCTTGATTCGCTTGACGCTGCTG"
  ASSIGNED CATEGORY: "false (0)"
- CHAIN: "CCGATTAACATCATTAGGGTATTTGATGTTAATCGGGTCTTGATTCGCTTGACGCTGCTG"
  ASSIGNED CATEGORY: "true (1)"
- CHAIN: "CCGATTAACATCAGGGGTAAATATGATGTTAATCGGGTCTTGATTCGCTTGACGCTGCTG"
  ASSIGNED CATEGORY: "true (1)"
- CHAIN: "CCGATTAACATCAAATGTTCCCCTGATGTTAATCGGGTCTTGATTCGCTTGACGCTGCTG"
  ASSIGNED CATEGORY: "false (0)"

-- ask Does this sequence meet the criterion binding signal < 4 z-score? CCGATTAACATCAGGGGGGGACCTGATGTTAATCGGGTCTTGATTCGCTTGACGCTGCTG
-- reply false (0)

-- ask Does this sequence meet the criterion binding signal < 4 z-score? CCGATTAACATCAAGTACAACGGTGATGTTAATCGGGTCTTGATTCGCTTGACGCTGCTG
-- reply true (1)

-- ask Does this sequence meet the criterion binding signal < 4 z-score? CCGATTAACATCAGGGAGGGAAATGATGTTAATCGGGTCTTGATTCGCTTGACGCTGCTG
-- reply true (1)

-- ask Does this sequence meet the criterion binding signal < 4 z-score? CCGATTAACATCAAAATCCCAGGTGATGTTAATCGGGTCTTGATTCGCTTGACGCTGCTG
-- reply false (0)

-- ask Does this sequence meet the criterion binding signal < 4 z-score? CCGATTAACATCAGACTTCCCCATGATGTTAATCGGGTCTTGATTCGCTTGACGCTGCTG
-- reply false (0)

-- ask Does this sequence meet the criterion binding signal < 4 z-score? CCGATTAACATCAGGACCCCCCCTGATGTTAATCGGGTCTTGATTCGCTTGACGCTGCTG
-- reply false (0)

-- ask Does this sequence meet the criterion binding signal < 4 z-score? CCGATTAACATCAAGGGGGTCCCTGATGTTAATCGGGTCTTGATTCGCTTGACGCTGCTG
-- reply false (0)

-- ask Does this sequence meet the criterion binding signal < 4 z-score? CCGATTAACATCACAGTTCCCCCTGATGTTAATCGGGTCTTGATTCGCTTGACGCTGCTG
-- reply true (1)

---

Target: GST-Nv-NF-kB (Cys allele) (Nematostella vectensis, UniProt E5G601 2-411)
Sequence: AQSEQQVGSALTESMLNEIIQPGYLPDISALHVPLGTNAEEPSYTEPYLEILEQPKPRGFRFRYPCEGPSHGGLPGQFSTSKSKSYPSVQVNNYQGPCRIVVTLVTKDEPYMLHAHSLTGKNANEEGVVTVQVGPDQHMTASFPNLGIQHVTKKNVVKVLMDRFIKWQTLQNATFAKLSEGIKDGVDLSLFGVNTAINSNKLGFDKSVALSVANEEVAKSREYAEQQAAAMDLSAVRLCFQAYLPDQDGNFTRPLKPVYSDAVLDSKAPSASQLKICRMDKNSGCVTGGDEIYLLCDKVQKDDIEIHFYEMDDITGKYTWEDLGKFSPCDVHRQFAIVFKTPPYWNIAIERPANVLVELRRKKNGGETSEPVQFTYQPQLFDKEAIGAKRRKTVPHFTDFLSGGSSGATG
Test: protein-binding microarray (PBM); PBM: ~300 nM protein, 6 mM HEPES pH 7.8, 80 mM KCl, 0.5 mM EDTA, 0.5 mM EGTA, 6% glycerol, 35 ng/ul poly-dIdC, 1% milk, 1 h, room temperature; Ap Aiptasia and Nv Nematostella (sea anemones) / Co Capsaspora / Aq Amphimedon (sponge) / Dm Drosophila / Hu human; RHD is the Rel homology domain; high values mean tight binding
Settings: dsDNA, one strand shown
VALUE TYPE: binding signal (z-score)
Give bare numbers, in z-score.

Worked cases, binding signal given:
- CHAIN: "CCGATTAACATCAGGACTACCCCTGATGTTAATCGGGTCTTGATTCGCTTGACGCTGCTG"
  binding signal [z-score]: 3.48
- CHAIN: "CCGATTAACATCAACAACCCCCCTGATGTTAATCGGGTCTTGATTCGCTTGACGCTGCTG"
  binding signal [z-score]: 4.31
- CHAIN: "CCGATTAACATCAGAAATCCCCCTGATGTTAATCGGGTCTTGATTCGCTTGACGCTGCTG"
  binding signal [z-score]: 10.5
- CHAIN: "CCGATTAACATCAAACCTTCCCCTGATGTTAATCGGGTCTTGATTCGCTTGACGCTGCTG"
  binding signal [z-score]: 5.62
- CHAIN: "CCGATTAACATCAACTCCCCCCATGATGTTAATCGGGTCTTGATTCGCTTGACGCTGCTG"
  binding signal [z-score]: 4.1
- CHAIN: "CCGATTAACATCAGGGGAGCACCTGATGTTAATCGGGTCTTGATTCGCTTGACGCTGCTG"
  binding signal [z-score]: 3.52
- CHAIN: "CCGATTAACATCAAAACTCCCCCTGATGTTAATCGGGTCTTGATTCGCTTGACGCTGCTG"
  binding signal [z-score]: 8.47
- CHAIN: "CCGATTAACATCAGGGGGATGTATGATGTTAATCGGGTCTTGATTCGCTTGACGCTGCTG"
  binding signal [z-score]: 4.88
- CHAIN: "CCGATTAACATCACATCCCCCCCTGATGTTAATCGGGTCTTGATTCGCTTGACGCTGCTG"
  binding signal [z-score]: 4.66
- CHAIN: "CCGATTAACATCAACTTTCCCAGTGATGTTAATCGGGTCTTGATTCGCTTGACGCTGCTG"
  binding signal [z-score]: 2

Here are 6 sequences. What values of binding signal were reported for them?
1. CCGATTAACATCAGGGGAAACGATGATGTTAATCGGGTCTTGATTCGCTTGACGCTGCTG
2. CCGATTAACATCAGGGGGGTACATGATGTTAATCGGGTCTTGATTCGCTTGACGCTGCTG
3. CCGATTAACATCAAAAATCTCCCTGATGTTAATCGGGTCTTGATTCGCTTGACGCTGCTG
4. CCGATTAACATCAGGGAAAGGAATGATGTTAATCGGGTCTTGATTCGCTTGACGCTGCTG
5. CCGATTAACATCACTTTGGGAAATGATGTTAATCGGGTCTTGATTCGCTTGACGCTGCTG
6. CCGATTAACATCAGGGACTCCCATGATGTTAATCGGGTCTTGATTCGCTTGACGCTGCTG

-- reply
6.2
2.52
6.51
3.07
1.89
4.05

Here are 2 sequences. What values of binding signal were reported for them?
1. CCGATTAACATCAACCATTCCCCTGATGTTAATCGGGTCTTGATTCGCTTGACGCTGCTG
2. CCGATTAACATCAGGGGATCCACTGATGTTAATCGGGTCTTGATTCGCTTGACGCTGCTG

-- reply
1. 6.61
2. 5.27

All values here come from paper PMC5700166.
